Target: human ether-à-go-go-related gene (hERG) potassium channel (human);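 also: peak tail current of the secondary pulse compared with the same well before compound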
Sequence (Q12809 whole entry, looked up): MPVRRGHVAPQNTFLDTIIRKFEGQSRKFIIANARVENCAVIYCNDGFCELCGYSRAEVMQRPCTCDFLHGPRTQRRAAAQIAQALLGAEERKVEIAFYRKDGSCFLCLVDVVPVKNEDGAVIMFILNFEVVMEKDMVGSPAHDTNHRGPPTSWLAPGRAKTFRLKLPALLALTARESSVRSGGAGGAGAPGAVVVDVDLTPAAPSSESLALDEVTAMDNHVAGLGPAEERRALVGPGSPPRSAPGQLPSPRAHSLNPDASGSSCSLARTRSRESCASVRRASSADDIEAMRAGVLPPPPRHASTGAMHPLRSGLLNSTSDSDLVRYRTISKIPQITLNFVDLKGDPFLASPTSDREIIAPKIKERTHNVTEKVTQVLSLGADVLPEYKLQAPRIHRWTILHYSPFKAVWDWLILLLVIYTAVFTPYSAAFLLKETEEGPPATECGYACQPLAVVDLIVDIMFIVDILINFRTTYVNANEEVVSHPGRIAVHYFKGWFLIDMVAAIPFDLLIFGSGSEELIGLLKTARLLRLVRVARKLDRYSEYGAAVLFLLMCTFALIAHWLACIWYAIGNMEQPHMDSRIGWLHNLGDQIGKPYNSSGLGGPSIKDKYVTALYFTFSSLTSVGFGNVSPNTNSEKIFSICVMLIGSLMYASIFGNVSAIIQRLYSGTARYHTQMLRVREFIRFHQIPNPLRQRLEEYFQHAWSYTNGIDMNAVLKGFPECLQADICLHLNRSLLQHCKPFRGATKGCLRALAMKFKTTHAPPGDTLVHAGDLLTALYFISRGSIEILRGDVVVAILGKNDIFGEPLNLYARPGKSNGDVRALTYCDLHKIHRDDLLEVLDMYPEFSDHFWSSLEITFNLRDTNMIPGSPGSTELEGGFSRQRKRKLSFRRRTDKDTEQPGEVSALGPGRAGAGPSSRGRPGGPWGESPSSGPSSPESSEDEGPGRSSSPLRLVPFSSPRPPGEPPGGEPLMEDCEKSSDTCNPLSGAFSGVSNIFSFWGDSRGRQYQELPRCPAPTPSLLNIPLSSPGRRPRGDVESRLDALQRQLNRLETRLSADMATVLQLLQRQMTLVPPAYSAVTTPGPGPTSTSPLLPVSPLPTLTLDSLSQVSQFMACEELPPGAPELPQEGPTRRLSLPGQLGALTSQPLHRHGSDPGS
Test: primary screen, population patch clamp on CHO cells stably expressing hERG; higher = less effect of the substance
The whole screen tested about 310,000 compounds, of which about 14,000 (4.5%) showed an effect of 50% or more. Effects have a minus sign here. This is one part of a sample in which strong results are shown more often than they occur.
Observation Type: hERG current change (%, negative = inhibition) at 10uM (%)
Record the value in %, omitting the unit from your answer.

Some compounds with recorded hERG current change (%, negative = inhibition) at 10uM:
O=C(CCl)NN1C(=O)NC(c2ccccc2)(c2ccccc2)C1=O; 11.2
CC(=O)c1c(C)oc2c1cc(NS(=O)(=O)c1ccc(C(=O)O)cc1)c1ccccc12; 14.3
O=C(CSc1ccc(Cl)cc1)Nc1ccccc1N1CCN(C(=O)c2ccccc2)CC1; -14.9
COC(=O)c1c(C)oc2c1cc(NS(=O)(=O)c1ccc(C(=O)O)cc1)c1ccccc12; 7.86
CCCC(C)NC(=O)Cc1ccccc1[N+](=O)[O-] (centres unmarked); 2.52
CCN1CCN(CC(O)COc2cccc(OC)c2)CC1.Cl (centres unmarked); 3.43

Requested field: hERG current change (%, negative = inhibition) at 10uM. Item: COc1cccc(OCCOCC(O)CN2CCN(Cc3ccc(Cl)cc3)CC2)c1.Cl (centres unmarked)
-72.3

Requested field: hERG current change (%, negative = inhibition) at 10uM. Item: S=c1[nH]nc(COc2ccccc2)n1/N=C/c1ccncc1
7.06

Requested field: hERG current change (%, negative = inhibition) at 10uM. Item: Cc1ccc(C)c(SCC(=O)Nc2ccc(C)c(S(=O)(=O)N3CCOCC3)c2)c1
-13.4

Requested field: hERG current change (%, negative = inhibition) at 10uM. Item: CC(=O)c1ccc(NC(=O)c2ccc(COc3ccccc3[N+](=O)[O-])o2)cc1
-8.46

Requested field: hERG current change (%, negative = inhibition) at 10uM. Item: Cc1ccc(S(=O)(=O)N2CCN(C(=O)CCOc3cc(C)ccc3C)CC2)cc1
-32.8
